# Streptococcus pneumoniae: MIC values follow

Example entries begin here.
INSERT INTO assay_data (molecule, measurement_name, measured) VALUES
  ('CCn1cc(C(=O)O)c(=O)c2cc(F)c(NCCN)nc21', 'MIC', '> 100 µg/mL'),
  ('CCn1cc(C(=O)O)c(=O)cc1-c1ccc(OC)cc1', 'MIC', '> 100 µg/mL'),
  ('CCn1cc(C(=O)O)c(=O)c2cc([N+](=O)[O-])c(C)nc21', 'MIC', '> 100 µg/mL');

q: Tell me MIC reported for CCn1cc(C(=O)O)c(=O)c2ccc(N3CCN(CC#N)CC3)cc21
a: > 100 µg/mL

q: Could you please provide reported MIC for CCn1cc(C(=O)O)c(=O)c2cc(F)c(/C=N/N3CCN(C)CC3)nc21 ? Thanks!
a: 100 µg/mL

q: Let me know recorded MIC for CCn1cc(C(=O)O)c(=O)c2cc(F)c(N3CCSCC3)cc21 , thanks.
a: 12.5 µg/mL

q: State its MIC for this molecule: CCn1cc(C(=O)O)c(=O)c2ccc(-c3ccncc3)cc21
a: 12.5 µg/mL

###

# Test system: Escherichia coli
# assay.remarks: Antibacterial activity against Escherichia coli (vogel)
measurement.name: MIC (µg/mL)
Unit µg/mL implied. Number only.

Below, 2 compounds whose answers are already recorded.
INSERT INTO assay_data (molecule, measured_on, measured) VALUES
  ('CCn1cc(C(=O)O)c(=O)c2cc([N+](=O)[O-])c(C)nc21', 'Escherichia coli', 25),
  ('CCn1cc(C(=O)O)c(=O)c2cc(F)c(F)c(F)c21', 'Escherichia coli', 1.6);

Okay, now this compound:
q: Look up and report measured MIC (Escherichia coli) for the following compound: CCn1cc(C(=O)O)c(=O)c2cc(F)c(NCCN)nc21
a: 12.5

###

# Test system: Streptococcus pneumoniae
Each entry below lists one item and its recorded MIC value.
Numeric answer only, unit µg/mL assumed.

The cases that follow already have their MIC on record.
INSERT INTO results (molecule, measured_on, unit_of_measure, measured) VALUES
  ('CCn1cc(C(=O)O)c(=O)c2ccc(N3CCNCC3)cc21', 'Streptococcus pneumoniae', 'µg/mL', 50),
  ('CCn1cc(C(=O)O)c(=O)c2ccc(N3CCNCC3)nc21', 'Streptococcus pneumoniae', 'µg/mL', 50);

Consider the additional compound presented here.
q: Give MIC; test system Streptococcus pneumoniae; compound CCn1cc(C(=O)O)c(=O)c2c(N)nc(N3CCNCC3)nc21
a: 50

###

# measured.on: DNA gyrase (Escherichia coli) (UniProt P0AES6+P0AES4)
measurement.name: gyrase cleavage conc (µg/mL)
Response body: numeric value in µg/mL, unit text excluded.

Use the examples below as a reference point.
INSERT INTO assay_data (molecule, unit_of_measure, measured) VALUES
  ('CCn1cc(C(=O)O)c(=O)c2cc(F)c(N3CCNCC3)nc21 [ENOXACIN]', 'µg/mL', 5),
  ('CCn1cc(C(=O)O)c(=O)c2ccc(-c3ccncc3)cc21 [ROSOXACIN]', 'µg/mL', 2.5),
  ('CCn1cc(C(=O)O)c(=O)c2cc(F)c(N3CCN(CCN)CC3)nc21', 'µg/mL', 6.3),
  ('CCn1cc(C(=O)O)c(=O)c2cc(F)c(N3CCSCC3)cc21', 'µg/mL', 5),
  ('CCn1cc(C(=O)O)c(=O)c2cc(F)c(N3CCN(CCN)CC3)cc21', 'µg/mL', 10);

Now consider the entry below.
q: Find the measured gyrase cleavage conc of CCn1cc(C(=O)O)c(=O)c2cc(F)c(SCCN)cc21 and report it.
a: 5

###

# Tested on: Escherichia coli
# assay.remarks: Antibacterial activity against Escherichia coli (vogel)
# MIC per entry
Write down the numeric answer in µg/mL and omit the unit.

Solved cases below.
INSERT INTO assay_data (molecule, measured) VALUES
  ('CCn1cc(C(=O)O)c(=O)c2cc([N+](=O)[O-])ccc21', 12.5),
  ('CCn1cc(C(=O)O)c(=O)c2cc(F)c(N3CCC(C(F)(F)F)CC3)cc21', 6.3);

q: Give recorded MIC. CCn1cc(C(=O)O)c(=O)c2cc(F)c(N3CCC(C(N)=O)CC3)cc21
a: 6.3

###

# System: Escherichia coli
# assay.remarks: Antibacterial activity against Escherichia coli (vogel)
Mark met only for MIC values smaller than 20 µg/mL; exact matches and larger values are not met.

INSERT INTO assay_data (molecule, measured_on, classification) VALUES
  ('CCn1cc(C(=O)O)c(=O)c2ccc(N3CCNCC3)cc21', 'Escherichia coli', 'met'),
  ('CCn1cc(C(=O)O)c(=O)c2ccc(/C=C/N3CCN(C)CC3)nc21', 'Escherichia coli', 'not met'),
  ('CCn1cc(C(=O)O)c(=O)c2c(N)nc(N3CCCC3)nc21', 'Escherichia coli', 'not met');

q: Regarding CCn1cc(C(=O)O)c(=O)cc1-c1ccc(OC)cc1 , kindly confirm whether its MIC is beneath 20 µg/mL.
a: not met

###

# Tested on: Pseudomonas aeruginosa
# assay.remarks: Antibacterial activity against Pseudomonas aeruginosa (UI-18)
Item-by-item account of MIC

Some solved cases for reference:
INSERT INTO results (molecule, measured_on, measured) VALUES
  ('CCn1cc(C(=O)O)c(=O)c2cc(F)c(/C=N/N3CCN(C)CC3)nc21', 'Pseudomonas aeruginosa', '> 100 µg/mL'),
  ('CCn1cc(C(=O)O)c(=O)c2cc([N+](=O)[O-])c(C)nc21', 'Pseudomonas aeruginosa', '> 100 µg/mL');

q: Dear colleague, please send me the reported MIC for CCn1cc(C(=O)O)c(=O)c2ccc(/C=N/N3CCN(C)CC3)nc21 when you can.
a: > 100 µg/mL

###

# Tested on: Pseudomonas aeruginosa
# assay.remarks: Antibacterial activity against Pseudomonas aeruginosa (UI-18)
Some compounds, each annotated with its measured MIC.
Provide the reading as a plain figure in µg/mL.

# annotated cases, reported MIC shown
INSERT INTO measurements (molecule, measured) VALUES
  ('CCn1cc(C(=O)O)c(=O)c2cc(F)c(N3CCSC3)cc21', 3.1),
  ('CCn1cc(C(=O)O)c(=O)c2cc(F)c(C)nc21', 50);

q: For the compound CCn1cc(C(=O)O)c(=O)c2cc(F)c(N3CCN(C(C)=N)CC3)nc21 , report MIC.
a: 25

q: Identify MIC associated with the compound CCn1cc(C(=O)O)c(=O)c2ccc(-c3ccncc3)cc21
a: 6.3

###

# Test system: Staphylococcus aureus
measurement.name: MIC

Use the examples below as a reference point.
INSERT INTO results (molecule, measurement_name, measured) VALUES
  ('CCn1cc(C(=O)O)c(=O)c2ccc(/C=C/N3CCN(C)CC3)nc21', 'MIC', '> 100 µg/mL'),
  ('CCn1cc(C(=O)O)c(=O)c2cc([N+](=O)[O-])ccc21', 'MIC', '> 100 µg/mL'),
  ('CCn1cc(C(=O)O)c(=O)c2cc(F)ccc21', 'MIC', '> 100 µg/mL');

API: the following record is the query input.
q: Provide MIC value for the following molecule: CCn1cc(C(=O)O)c(=O)cc1C
a: > 100 µg/mL

###

Below are gyrase cleavage conc values measured for DNA gyrase (Escherichia coli) (UniProt P0AES6+P0AES4).
Your answer should be a plain number; it is taken to be in µg/mL.

Here's what some known entries look like.
INSERT INTO measurements (compound, measured) VALUES
  ('CC1COc2c(N3CCN(C)CC3)c(F)cc3c(=O)c(C(=O)O)cn1c23 (centres undefined)', 5),
  ('CCn1cc(C(=O)O)c(=O)c2ccc(N3CCNCC3)nc21', 75),
  ('CCn1cc(C(=O)O)c(=O)c2ccc(/C=N/N3CCN(C)CC3)nc21', 100),
  ('CCn1cc(C(=O)O)c(=O)c2cc(F)c(/C=N/O)nc21', 50),
  ('CCn1cc(C(=O)O)c(=O)c2ccc(N3CCNCC3)cc21', 18),
  ('CCn1cc(C(=O)O)c(=O)c2cc(F)c(N3CCN(CC#N)CC3)cc21', 10);

q: Under DNA gyrase (Escherichia coli) (UniProt P0AES6+P0AES4): report gyrase cleavage conc of CCn1cc(C(=O)O)c(=O)c2ccc(N3CCN(CC#N)CC3)cc21 .
a: 18

q: Provide DNA gyrase (Escherichia coli) (UniProt P0AES6+P0AES4) gyrase cleavage conc reading for CCn1cc(C(=O)O)c(=O)c2cc(F)c(C)cc21 .
a: 25

###

# Test system: Escherichia coli
# assay.remarks: Antibacterial activity against Escherichia coli (vogel)
measurement.name: MIC (µg/mL)
Numeric only. Scale: µg/mL

A selection of reference data follows.
INSERT INTO results (molecule, measured_on, measurement_name, measured) VALUES
  ('CCn1cc(C(=O)O)c(=O)c2cc(F)c(N3CCCC3)cc21', 'Escherichia coli', 'MIC', 1.6),
  ('CCn1cc(C(=O)O)c(=O)c2cc(F)c(Cl)cc21', 'Escherichia coli', 'MIC', 0.8),
  ('CCn1cc(C(=O)O)c(=O)c2cc(F)c(N3CCN(C(C)=N)CC3)nc21', 'Escherichia coli', 'MIC', 3.1);

Turning now to a further record.
q: Report MIC for CCn1cc(C(=O)O)c(=O)c2cc(F)c(/C=N/N3CCN(C)CC3)nc21
a: 25
